Values from the RNAGym collection of RNA variant scans (doi:10.1038/nmeth.2970)

B1: NELF-E aptamer (parent)
chain: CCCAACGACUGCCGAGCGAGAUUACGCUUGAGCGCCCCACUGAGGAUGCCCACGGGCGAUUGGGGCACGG

variants of: B1; assay: HiTS-RAP; conditions: with NELF-E (Drosophila)
pKd: −log10 of the molar value.

Variant designation	pKd
G7U A24U	8.17
G11A C12G	8.14
G14U U23G	8.20
G11U G34A	8.17
G18A	8.34
G14A A15C	8.35
A8U A19U	8.17
A5U G55A	8.15
A4G G11U	8.19
C12U A31G	8.17
G16U U29C	8.18
C33U A39U	7.57
A5G U41A	7.60
G14U A52U	7.80
U22G C40U	7.08
A4G C37G	8.16
C6G U29C	8.33
C13G A46U	7.06
G30A	8.36
G7U C37G	7.95
G11U C13G	8.24
C17U G64A	7.95
U23G G48A	7.96
A19G	8.29
U23G C35U	7.94
G54A A59G	7.13
U23G G56A	8.09
A24G A39U	7.53
A21U C25G	8.18
C13G C36U	8.13
U23G C37G	8.10
C6G G54U	8.02
U23G C33A	8.26
A8G A24U	8.26
G7U G20A	8.13
C9A	8.29
G11U A19G	8.22
U22G C50U	7.89
C13G A43U	7.56
U10G U47A	7.97
U23A	8.29
U10A U29C	8.28
A8G A67G	8.18
C13G G16U	8.20
C13G G18A	8.27
C9G C35G	8.12
U10G G55U	8.21
G20A A21G	8.15
U23G C49G	8.14
G30U	8.27
A4G A67G	8.18
G7U C12U	8.23
G7U A39G	7.94
U41G A59U	7.50
U10A	8.31
U10C G55A	8.07
G11U A24U	8.26
C6G C9G	8.27
C13G U47A	7.93
C6U C9G	8.18
A5C C13G	8.17
U29G C37U	7.91
U10A U22G	8.26
U23G C50U	7.90
G30A U41G	8.29
U10G A24G	8.29
A5G A59G	7.53
C12G G14A	8.23
C17G A24G	8.26
U10G A39U	7.61
G14U U41A	7.29
